- Test system: MS2 coat protein
- Method notes: apparent KD of MS2 coat protein; higher = weaker reporter binding
- Measurement conditions: Eterna round: R107; input ligand: theophylline 2 mM
Observation type: apparent KD of MS2 coat protein (µM)
Field: numeric (µM). Do not append units.

Example sequences with recorded apparent KD of MS2 coat protein:
AUACAUGAGGAUCACCCAUGUAUAGUUGAAGGAGCGACCAGAGGGUCAGGUAGGUCGCAGCGCAUGAGGUAAGCCCAUGUAUGCU [#1 Exclusion - Arginine A Attempt #16 (Inspired by Pi)]    0.07
UCAGUGCAAGGAAGGAGCGGGUACAUGAGGAUCACCCAUGUGCAAGUGGUGAGCGUCCGUGCCCAGGUAGGUCGCCUAGCCUGGU [Quisso]    0.149
ACCUGCGUUUGUUUCUUUCUGACGCAGGUUCGAGGACCGGUACGGCCGCCACUCGGACAUGAGGAUCACCCAUGUUUGAAAUGGG [#01 Exclusion Tryptophan A]    0.313

Now for a further sequence.
The sequence ACGAUAGGACUUGAGGAUCACCCAGGUGAUACCAGCCUGGAAACAGGCCCUUGGCAGCACUAAUACUCCAAUAACCUAUCGAAUA [TheoAX 16 #MicroSwitchBubble #AlternativeMS2] on MS2 coat protein: apparent KD of MS2 coat protein was 0.417
